The values you see were collected from patent US20090247559A1.

biological target: CK2 (Homo sapiens); assay: CK2 inhibition, biochemical chemiluminescence holoenzyme assay (Kinase Glo, IC50 determination); settings: Table 1 activity class; symbol given only if active; read-out: CK2 IC50 (Activity C)
Sequence (P68400 whole entry): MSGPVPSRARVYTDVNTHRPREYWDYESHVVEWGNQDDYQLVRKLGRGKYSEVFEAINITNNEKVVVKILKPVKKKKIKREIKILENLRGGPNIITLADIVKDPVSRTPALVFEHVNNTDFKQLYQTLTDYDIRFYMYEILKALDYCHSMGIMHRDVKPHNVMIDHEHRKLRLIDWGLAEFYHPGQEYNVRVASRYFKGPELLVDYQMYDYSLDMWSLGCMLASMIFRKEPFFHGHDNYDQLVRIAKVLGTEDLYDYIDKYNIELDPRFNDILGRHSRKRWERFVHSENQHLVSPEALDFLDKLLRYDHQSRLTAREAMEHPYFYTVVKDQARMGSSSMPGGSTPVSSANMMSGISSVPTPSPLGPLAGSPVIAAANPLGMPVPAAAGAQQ
Sequence (P67870 whole entry partner): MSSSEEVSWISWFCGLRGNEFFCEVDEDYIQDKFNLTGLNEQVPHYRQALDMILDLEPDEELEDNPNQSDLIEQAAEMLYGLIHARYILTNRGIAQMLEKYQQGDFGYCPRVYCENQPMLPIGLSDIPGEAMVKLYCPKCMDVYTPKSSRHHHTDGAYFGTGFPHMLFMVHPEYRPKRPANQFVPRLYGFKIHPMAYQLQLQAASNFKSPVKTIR
pIC50: −log10 of the molar value.
Endpoint Name: pIC50

{"Compound": "O=c1[nH]c([C@@H]2CC3CCCCC3N2)nc2c1oc1ccc(Cl)cc12 (stereo partly shown)", "Endpoint Name": "pIC50", "Result": "> 5.00"}
{"Compound": "Cc1cc(N)ccc1-c1nc2c(oc3ccc(Br)cc32)c(=O)[nH]1", "Endpoint Name": "pIC50", "Result": "> 5.00"}
{"Compound": "CC(=O)N1CCN(Cc2nc3c(oc4ccc(Br)cc43)c(=O)[nH]2)CC1", "Endpoint Name": "pIC50", "Result": "> 5.00"}
{"Compound": "CN(C)Cc1ccc(-c2nc3c(oc4ccc(Br)cc43)c(=O)[nH]2)cc1", "Endpoint Name": "pIC50", "Result": "> 5.00"}

###

Entries and their measured IC50 follow.
target: CK2 (Homo sapiens); test: CK2 inhibition, biochemical chemiluminescence holoenzyme assay (Kinase Glo, IC50 determination); conditions: Table 1 activity class; symbol given only if active; read-out: CK2 IC50 (Activity C)
Where a name gives a salt, the structure may show the parent alone.

{"Compound": "NC(CCc1ccccc1)c1nc2c(oc3ccc(Br)cc32)c(=O)[nH]1 (stereo in doubt)", "IC50": "< 10 µM"}
{"Compound": "O=c1[nH]c(-c2ccc(Br)cc2Cl)nc2c1oc1ccc(Br)cc12", "IC50": "< 10 µM"}
{"Compound": "O=c1[nH]c(-c2ccc(CNC3CCCCC3)cc2Cl)nc2c1oc1ccc(Br)cc12", "IC50": "< 10 µM"}
{"Compound": "CC(C)(CN1CCCCC1)NCc1nc2c(oc3ccc(Br)cc32)c(=O)[nH]1", "IC50": "< 10 µM"}
{"Compound": "O=c1[nH]c(CN2C[C@@H](O)[C@@H](O)C2)nc2c1oc1ccc(Br)cc12", "IC50": "< 10 µM"}
{"Compound": "O=C(Nc1ccc(Cl)c(-c2nc3c(oc4ccc(Br)cc43)c(=O)[nH]2)c1)c1ccno1", "IC50": "< 10 µM"}
{"Compound": "O=c1[nH]c(-c2c(F)cccc2F)nc2c1oc1ccc(Br)cc12", "IC50": "< 10 µM"}
{"Compound": "COc1ccc2oc3c(=O)[nH]c(CN4CC[C@H](O)C4)nc3c2c1", "IC50": "< 10 µM"}
{"Compound": "CN1CCC[C@H]1c1nc2c(oc3ccc(Br)cc32)c(=O)[nH]1 [Compound 527, hydrochloride]", "IC50": "< 10 µM"}
{"Compound": "NC[C@H]1CC[C@H](c2nc3c(oc4ccc(Br)cc43)c(=O)[nH]2)CC1", "IC50": "< 10 µM"}
{"Compound": "COc1cc2oc3c(=O)[nH]c(CN4CC[C@H](O)C4)nc3c2cc1Br", "IC50": "< 10 µM"}
{"Compound": "CN1CCC(NCc2ccc(-c3nc4c(oc5ccc(Br)cc54)c(=O)[nH]3)c(Cl)c2)CC1", "IC50": "< 10 µM"}
{"Compound": "Cc1ccc(C(=O)Nc2ccc(-c3nc4c(oc5ccc(Br)cc54)c(=O)[nH]3)c(Cl)c2)cn1", "IC50": "< 10 µM"}
{"Compound": "CC[C@@H](C)NCc1nc2c(oc3ccc(Br)cc32)c(=O)[nH]1", "IC50": "< 10 µM"}
{"Compound": "CN(CCO)Cc1nc2c(oc3ccc(Br)cc32)c(=O)[nH]1", "IC50": "< 10 µM"}
{"Compound": "O=c1[nH]c(CN2CCCC2)nc2c1oc1ccc(Cl)cc12", "IC50": "< 10 µM"}
{"Compound": "CN(C)CCCC(=O)Nc1ccc(-c2nc3c(oc4ccc(Br)cc43)c(=O)[nH]2)c(Cl)c1", "IC50": "< 10 µM"}
{"Compound": "CN1CCC(Cc2nc3c(oc4ccc(Br)cc43)c(=O)[nH]2)CC1", "IC50": "< 10 µM"}
{"Compound": "CN(C)CCN1CCN(c2nc3c(oc4ccc(Br)cc43)c(=O)[nH]2)CC1", "IC50": "< 10 µM"}
{"Compound": "CN1CCN(c2ccc(COCc3nc4c(oc5ccc(Br)cc54)c(=O)[nH]3)cc2)CC1", "IC50": "< 10 µM"}
{"Compound": "C[C@H](N)c1nc2c(oc3ccc(Cl)cc32)c(=O)[nH]1", "IC50": "< 10 µM"}
{"Compound": "Cc1cc2c(cc1[N+](=O)O)oc1c(=O)[nH]c(CN3CC[C@H](O)C3)nc12", "IC50": "< 10 µM"}
{"Compound": "CNc1cc(-c2nc3c(oc4ccc(Br)cc43)c(=O)[nH]2)c(Cl)cn1", "IC50": "< 10 µM"}
{"Compound": "O=C(Nc1ccc(-c2nc3c(oc4ccc(Br)cc43)c(=O)[nH]2)c(Cl)c1)C1CCCCC1", "IC50": "< 10 µM"}
{"Compound": "O=c1[nH]c(COc2ccccc2)nc2c1oc1ccc(Br)cc12", "IC50": "< 10 µM"}
{"Compound": "O=c1[nH]c(-c2ccccn2)nc2c1oc1ccc(Br)cc12", "IC50": "< 10 µM"}
{"Compound": "O=c1[nH]c(-c2ccc(CNCCN3CCCCC3)cc2Cl)nc2c1oc1ccc(Br)cc12", "IC50": "< 10 µM"}
{"Compound": "Cc1cc(NC(=O)CN(C)C)ccc1-c1nc2c(oc3ccc(Br)cc32)c(=O)[nH]1", "IC50": "< 10 µM"}
{"Compound": "O=C(Nc1ccc(-c2nc3c(oc4ccc(Br)cc43)c(=O)[nH]2)c(Cl)c1)c1cnc2[nH]ccc2c1", "IC50": "< 10 µM"}
{"Compound": "O=c1[nH]c(CN2CCC[C@H]2CO)nc2c1oc1ccc(Br)cc12", "IC50": "< 10 µM"}
{"Compound": "O=c1[nH]c(-c2ccc(NCc3c[nH]cn3)cc2Cl)nc2c1oc1ccc(Br)cc12", "IC50": "< 10 µM"}
{"Compound": "CC(C)(C)OC(=O)NC1CCC(c2nc3c(oc4ccc(Br)cc43)c(=O)[nH]2)CC1 (stereo not drawn)", "IC50": "< 10 µM"}
{"Compound": "COc1cc(Br)c(-c2nc3c(oc4ccc(Br)cc43)c(=O)[nH]2)cc1OC", "IC50": "< 10 µM"}

###

biological target: PIM (PIM-1, PIM-2, and/or PIM-3); assay: PIM-1, PIM-2 and PIM-3 inhibition, biochemical chemiluminescence assays (Kinase Glo, IC50 determination); settings: Table 1 activity class; PIM refers to PIM-1, PIM-2, and/or PIM-3; read-out: PIM IC50 (Activity B)
pIC50: −log10 of the molar value.

{"Structure Notation": "CC(C)COc1cccc2oc3c(=O)[nH]c(CN4CC[C@H](O)C4)nc3c12", "pIC50": "> 5.00"}
{"Structure Notation": "COC(=O)c1ccc(-c2nc3c(oc4ccc(Br)cc43)c(=O)[nH]2)c(Cl)c1", "pIC50": "> 5.00"}
{"Structure Notation": "CO[C@@H]1CCN(Cc2nc3c(oc4ccc(Br)cc43)c(=O)[nH]2)C1", "pIC50": "> 5.00"}
{"Structure Notation": "CC(=O)N1CCC(c2nc3c(oc4ccc(Br)cc43)c(=O)[nH]2)CC1", "pIC50": "> 5.00"}
{"Structure Notation": "Nc1ncc(Cl)c(-c2nc3c(oc4ccc(Br)cc43)c(=O)[nH]2)n1", "pIC50": "> 5.00"}
{"Structure Notation": "CN(Cc1nc2c(oc3ccc(Br)cc32)c(=O)[nH]1)c1ccccc1Cl", "pIC50": "> 5.00"}
{"Structure Notation": "O=c1[nH]c(CN2CCC[C@H](O)C2)nc2c1oc1ccc(Br)cc12", "pIC50": "> 5.00"}
{"Structure Notation": "CN(C)CCCN1CCN(c2nc3c(oc4ccc(Br)cc43)c(=O)[nH]2)CC1", "pIC50": "> 5.00"}

###

biological target: PIM (PIM-1, PIM-2, and/or PIM-3); test: PIM-1, PIM-2 and PIM-3 inhibition, biochemical chemiluminescence assays (Kinase Glo, IC50 determination); conditions: Table 1 activity class; PIM refers to PIM-1, PIM-2, and/or PIM-3; read-out: PIM IC50 (Activity B)
Entries and their measured IC50 follow.
Endpoint Name: IC50

{"Compound": "NC1CCC(c2nc3c(oc4ccc(Br)cc43)c(=O)[nH]2)CC1 (stereo not drawn) [Compound 223]", "Result": "< 10 µM"}
{"Compound": "O=c1c2oc3ccc(Br)cc3c2nc2n1CN1CCC[C@@H]21 [Compound 453]", "Result": "< 10 µM"}
{"Compound": "CN1CCN(Cc2nc3c(nc4ccc(Br)cn43)c(=O)[nH]2)CC1 [Compound 417]", "Result": "< 10 µM"}
{"Compound": "CN1CCC(NCc2ccc(-c3nc4c(oc5ccc(Br)cc54)c(=O)[nH]3)c(Cl)c2)CC1 [Compound 435]", "Result": "< 10 µM"}
{"Compound": "Cc1cc(C(=O)Nc2ccc(-c3nc4c(oc5ccc(Br)cc54)c(=O)[nH]3)c(Cl)c2)cc(Cl)n1 [Compound 274]", "Result": "< 10 µM"}
{"Compound": "COc1cccc2oc3c(=O)[nH]c(-c4ccc5[nH]nc(C)c5c4)nc3c12 [Compound 170]", "Result": "< 10 µM"}
{"Compound": "CC1(O)CCN(Cc2nc3c(oc4ccc(Br)cc43)c(=O)[nH]2)C1 (stereo not drawn) [Compound 346]", "Result": "< 10 µM"}
{"Compound": "COc1cc2oc3c(=O)[nH]c(CN4CC[C@H](O)C4)nc3c2cc1Br [Compound 436]", "Result": "< 10 µM"}
{"Compound": "O=c1[nH]c(CN2CC[C@H](O)C2)nc2c1oc1ccc(NCCc3cccc(Cl)c3)cc12 [Compound 444]", "Result": "< 10 µM"}
{"Compound": "CNCc1nc2c(oc3ccc(Br)cc32)c(=O)[nH]1 [Compound 516]", "Result": "< 10 µM"}
{"Compound": "COc1ccc2oc3c(=O)[nH]c([C@@H]4C[C@@H](F)CN4)nc3c2c1 [Compound 532]", "Result": "< 10 µM"}
{"Compound": "COCCC(=O)N1CCC(c2nc3c(oc4ccc(Br)cc43)c(=O)[nH]2)CC1 [Compound 209]", "Result": "< 10 µM"}
{"Compound": "COc1ccc(CNc2ccc3oc4c(=O)[nH]c(CN5CC[C@H](O)C5)nc4c3c2)cc1 [Compound 468]", "Result": "< 10 µM"}
{"Compound": "O=c1[nH]c(-c2ccc(CNC3CCCCC3)cc2Cl)nc2c1oc1ccc(Br)cc12 [Compound 427]", "Result": "< 10 µM"}
{"Compound": "CN(C)Cc1ccc(-c2nc3c(oc4ccc(Br)cc43)c(=O)[nH]2)c(Cl)c1 [Compound 381]", "Result": "< 10 µM"}
{"Compound": "CCOC(=O)Cc1ccc2oc3c(=O)[nH]c(CN4CC[C@H](O)C4)nc3c2c1 [Compound 491]", "Result": "< 10 µM"}
{"Compound": "Cc1ccccc1CNc1ccc2oc3c(=O)[nH]c(CN4CC[C@H](O)C4)nc3c2c1 [Compound 461]", "Result": "< 10 µM"}
{"Compound": "NC(Cc1cccs1)c1nc2c(oc3ccc(Br)cc32)c(=O)[nH]1 (stereo not drawn) [Compound 538]", "Result": "< 10 µM"}
{"Compound": "O=c1[nH]c([C@@H]2CC(F)(F)CN2)nc2c1oc1ccc(Cl)cc12 [Compound 524]", "Result": "< 10 µM"}
{"Compound": "Cc1cnc(C(=O)Nc2ccc(-c3nc4c(oc5ccc(Br)cc54)c(=O)[nH]3)c(Cl)c2)cn1 [Compound 312]", "Result": "< 10 µM"}
{"Compound": "CN(C)CCCC(=O)Nc1ccc(-c2nc3c(oc4ccc(Br)cc43)c(=O)[nH]2)c(Cl)c1 [Compound 160]", "Result": "< 10 µM"}
{"Compound": "O=C(Nc1ccc(-c2nc3c(oc4ccc(Br)cc43)c(=O)[nH]2)c(Cl)c1)c1ccncc1Cl [Compound 275]", "Result": "< 10 µM"}
{"Compound": "O=C(NCc1ccccc1Cl)C1CCN(Cc2nc3c(oc4ccc(Br)cc43)c(=O)[nH]2)C1 (stereo not drawn) [Compound 224]", "Result": "< 10 µM"}
{"Compound": "Nc1ccc(C(=O)Nc2ccc(-c3nc4c(oc5ccc(Br)cc54)c(=O)[nH]3)c(Cl)c2)cn1 [Compound 439]", "Result": "< 10 µM"}
{"Compound": "COc1cccc2oc3c(=O)[nH]c(CN4CC[C@H](O)C4)nc3c12 [Compound 448]", "Result": "< 10 µM"}
{"Compound": "CN(C)Cc1ccc(-c2nc3c(oc4ccc(Br)cc43)c(=O)[nH]2)cc1 [Compound 358]", "Result": "< 10 µM"}
{"Compound": "O=C(Nc1ccc(Cl)c(-c2nc3c(oc4ccc(Br)cc43)c(=O)[nH]2)c1)c1cccnc1 [Compound 327]", "Result": "< 10 µM"}
{"Compound": "O=c1[nH]c(C2CCN(Cc3ccncc3)C2)nc2c1oc1ccc(Br)cc12 (stereo not drawn) [Compound 290]", "Result": "< 10 µM"}
{"Compound": "O=C(O)Cc1nc2c(oc3ccc(Br)cc32)c(=O)[nH]1 [Compound 310]", "Result": "< 10 µM"}
{"Compound": "O=c1[nH]c(CN2CC[C@H](F)C2)nc2c1oc1ccc(Br)cc12 [Compound 308]", "Result": "< 10 µM"}
{"Compound": "Cc1cc2oc3c(=O)[nH]c(CN4CC[C@H](O)C4)nc3c2cc1Br [Compound 420]", "Result": "< 10 µM"}
{"Compound": "CCC(C)N(C)Cc1nc2c(oc3ccc(Br)cc32)c(=O)[nH]1 (stereo not drawn) [Compound 518]", "Result": "< 10 µM"}
{"Compound": "O=C(NCc1ccncc1)C1CCN(Cc2nc3c(oc4ccc(Br)cc43)c(=O)[nH]2)C1 (stereo not drawn) [Compound 325]", "Result": "< 10 µM"}
